- study.system: Anti-PSMA Fab (006 PSMA Fab)
- test.method.notes: clonal phage ELISA on biotinylated PSMA Fab captured on neutravidin; bound phage detected with anti-M13-HRP; no PSMA antigen
Where no end group is shown, it is not given here.
attribute.measured: Phage binding ELISA signal, Anti-PSMA Fab
Give bare numbers.

MDNWCTPPWMCHGF [Phage-2299]    1.49
WVQWCIPPWMCEPS [Phage-2300]    1.49
VQNWCIPAWMCEGK [Phage-2304]    1.48
FANWCTPSWMCNFT [Phage-2302]    1.48
YDRLCIPMWMCSSV [Phage-2307]    1.48
QNTWCIPPWMCEVF [Phage-2306]    1.48
EWKWCTPPWMCQYE [Phage-2308]    1.48
PEKWCIPDWMCTVY [Phage-2311]    1.48

Could you tell me Phage binding ELISA signal, Anti-PSMA Fab for each of these binders? They are listed below.
1. WENWCTPEWMCNGF (cysteine pairing not given here; also: displayed on bacteriophage by fusion to pIII) [Phage-2298]
2. IEKWCIPLWMCEMQ [Phage-2309]
3. MEIWCKPAWMCEST [Phage-2310]
4. EFKMCIPQWMCQHQ [Phage-2312]
5. EAKWCTPPWMCMSM [Phage-2305]
6. SMKWCTPAWMCERL [Phage-2301]

Reply text:
1: 1.49; 2: 1.48; 3: 1.48; 4: 1.47; 5: 1.48; 6: 1.49

Phage binding ELISA signal, Anti-PSMA Fab recorded for this binder, LTKWCIPEWMCAVE (cysteine pairing not given here; also: displayed on bacteriophage by fusion to pIII) [Phage-2303] , is 1.48

src = patent US20260242478A1
